biological target: CYP2C9 F476L mutant (Homo sapiens, UniProt P11712, F476L); experiment: biochemical
OUTCOME MEASURE: pKd
Schema: pKd number; meaning minus log10 of the concentration expressed in molar units.

Task: Item C[C@H](C(=O)O)c1ccc(-c2ccccc2)c(F)c1 [(S)-flurbiprofen] : provide pKd
Output: 5.04

* * *

biological target: CYP2C9 F100L mutant (Homo sapiens, UniProt P11712, F100L); experiment: in vitro; conditions: pH 7.4
OUTCOME MEASURE: Km at 20 min (µM)
Provide the reading as a plain figure in µM.

Task: // fetch Km at 20 min given entry C[C@H](C(=O)O)c1ccc(-c2ccccc2)c(F)c1 [(S)-flurbiprofen]
Output: 34.8
